Hello, the source for this data is patent US11607414B2, in case you need it.

study.system: EGFR (Homo sapiens, UniProt P00533)
Sequence (P00533 25-1210): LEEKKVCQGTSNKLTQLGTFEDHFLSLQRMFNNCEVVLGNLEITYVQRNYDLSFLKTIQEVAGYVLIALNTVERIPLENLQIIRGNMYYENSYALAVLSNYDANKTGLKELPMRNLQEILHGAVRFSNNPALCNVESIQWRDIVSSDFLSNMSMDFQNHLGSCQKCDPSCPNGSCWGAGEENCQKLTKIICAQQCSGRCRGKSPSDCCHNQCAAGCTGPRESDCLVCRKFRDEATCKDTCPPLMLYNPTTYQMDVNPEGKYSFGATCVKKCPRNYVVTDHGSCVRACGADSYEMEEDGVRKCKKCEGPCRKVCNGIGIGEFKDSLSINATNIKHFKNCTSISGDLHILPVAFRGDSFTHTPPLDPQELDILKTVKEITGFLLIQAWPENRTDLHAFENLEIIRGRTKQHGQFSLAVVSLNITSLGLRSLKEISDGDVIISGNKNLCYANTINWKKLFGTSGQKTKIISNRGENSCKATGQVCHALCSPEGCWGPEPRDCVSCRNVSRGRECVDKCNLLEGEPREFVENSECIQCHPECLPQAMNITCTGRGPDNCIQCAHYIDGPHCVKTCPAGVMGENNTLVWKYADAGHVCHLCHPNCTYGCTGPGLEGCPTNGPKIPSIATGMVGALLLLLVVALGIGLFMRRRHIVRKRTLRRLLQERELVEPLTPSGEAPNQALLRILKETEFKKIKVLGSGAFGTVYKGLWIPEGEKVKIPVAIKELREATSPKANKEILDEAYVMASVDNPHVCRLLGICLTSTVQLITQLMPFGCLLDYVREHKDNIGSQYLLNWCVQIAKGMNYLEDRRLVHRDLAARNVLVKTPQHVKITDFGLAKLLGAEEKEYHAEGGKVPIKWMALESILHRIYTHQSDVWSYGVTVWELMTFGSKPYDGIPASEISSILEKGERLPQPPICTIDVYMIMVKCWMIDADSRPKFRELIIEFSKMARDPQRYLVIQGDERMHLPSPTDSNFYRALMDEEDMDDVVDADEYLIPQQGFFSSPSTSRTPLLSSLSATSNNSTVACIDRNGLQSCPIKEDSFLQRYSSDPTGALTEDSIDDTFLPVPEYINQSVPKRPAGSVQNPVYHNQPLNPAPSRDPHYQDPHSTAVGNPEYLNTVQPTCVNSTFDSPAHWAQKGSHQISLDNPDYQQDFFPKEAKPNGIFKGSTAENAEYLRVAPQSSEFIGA
test.readout: IC50 (nM)
Answer in nM, number only, no unit symbol.

Look up IC50 of COc1ccc(Nc2ncnc3ccc(-c4cncc(NS(C)(=O)=O)c4)cc23)cc1Cl [MOL-153] and report it.
349
